Attribution: the supplement of paper PMC11061612

Test system: M059J (Glioblastoma);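 note: after 72 h of two-drug dosing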
Assay: Bliss excess, mean over the matrix (fraction); higher = more synergy
Attribute: Bliss excess

Exercise: Recorded Bliss excess for C[C@@H](Nc1cc(F)cc(F)c1)c1cc(C(=O)N(C)C)cc2c(=O)cc(N3CCOCC3)oc12 [AZD8186] + CC(=O)c1c(C)c2cnc(Nc3ccc(N4CCNCC4)cn3)nc2n(C2CCCC2)c1=O [Palbociclib] (first compound max 10 µM, 7x7, partner max 10 µM) with M059J (Glioblastoma), please?
Key: -0.006

Exercise: Recorded Bliss excess for COc1cccc(OCCCN)c1-c1cc(Nc2cnc(C#N)cn2)n[nH]1 [Prexasertib] + C[C@@H]1COCCN1C2=NC(=NC(=C2)C3(CC3)[S@](=N)(=O)C)C4=C5C=CNC5=NC=C4 [AZD6738] (first compound max 1 µM, 7x7, partner max 10 µM) with M059J (Glioblastoma), please?
Key: -0.0325

Exercise: Recorded Bliss excess for COc1nnc2ccc(N3CCC(c4ccc(OCCN5CCN(C)C(=O)[C@H]5C)cc4)CC3)nn12 [AZD5153] + CC1(C)CCC(CN2CCN(c3ccc(C(=O)NS(=O)(=O)c4ccc(NCC5CCOCC5)c([N+](=O)[O-])c4)c(Oc4cnc5[nH]ccc5c4)c3)CC2)=C(c2ccc(Cl)cc2)C1 [Venetoclax] (first compound max 1 µM, 7x7, partner max 1 µM) with M059J (Glioblastoma), please?
Key: -0.0124

Exercise: Recorded Bliss excess for C=CCn1c(=O)c2cnc(Nc3ccc(N4CCN(C)CC4)cc3)nc2n1-c1cccc(C(C)(C)O)n1 [AZD1775] + Nc1ccn([C@@H]2O[C@H](CO)[C@@H](O)C2(F)F)c(=O)n1 [Gemcitabine] (first compound max 1 µM, partner max 0.3 µM) with M059J (Glioblastoma), please?
Key: 0.0175

Exercise: Recorded Bliss excess for N#Cc1cnc(Nc2cc(NC[C@H]3CNCCO3)c(C(F)(F)F)cn2)cn1 [SRA737] + O=c1[nH]cc(F)c(=O)[nH]1 [5-Fluorouracil] (first compound max 10 µM, 7x7, partner max 20 µM) with M059J (Glioblastoma), please?
Key: 0.0052

Exercise: Recorded Bliss excess for CCc1c2c(nc3ccc(O)cc13)-c1cc3c(c(=O)n1C2)COC(=O)[C@]3(O)CC [SN-38] + CN(C)CCCOc1ccc(-c2ccc3ncc4c(c3c2)n(C2CCOCC2)c(=O)n4C)cn1 [AZD0156] (first compound max 0.3 µM, 7x7, partner max 1 µM) with M059J (Glioblastoma), please?
Key: -0.0104

###

Test system: T-T (Esophageal Squamous Cell Carcinoma)
Assay: combination Emax (second highest fraction inhibited in the dose matrix, 72 h); higher = more inhibition; extreme values may be limits of the assay
measurement.name: combination Emax
I only need the number, thanks.

Exercise: Given CC(=O)Nc1cccc(-n2c(=O)n(C3CC3)c(=O)c3c(Nc4ccc(I)cc4F)n(C)c(=O)c(C)c32)c1 [Trametinib] + Cc1nc(-c2cn3c(n2)-c2ccc(-c4cnn(C(C)(C)C(N)=O)c4)cc2OCC3)n(C(C)C)n1 [Taselisib] (first compound max 1 µM, 7x7, partner max 10 µM) , state its recorded combination Emax.
Key: 0.903

Exercise: Given Cc1c2c(nn1C)CSCc1cc(n(C)n1)CSc1cc(c3ccccc3c1)OCCCc1c(C(=O)O)n(C)c3c-2c(Cl)ccc13 [AZD5991] + CC(=O)O[C@H]1C(=O)[C@@]2(C)[C@H]([C@H](OC(=O)c3ccccc3)[C@]3(O)C[C@H](OC(=O)[C@H](O)[C@@H](NC(=O)c4ccccc4)c4ccccc4)C(C)=C1C3(C)C)[C@]1(OC(C)=O)CO[C@@H]1C[C@@H]2O [Paclitaxel] (first compound max 1 µM, 7x7, partner max 3 µM) , state its recorded combination Emax.
Key: 0.989

Exercise: Given Cc1c2c(nn1C)CSCc1cc(n(C)n1)CSc1cc(c3ccccc3c1)OCCCc1c(C(=O)O)n(C)c3c-2c(Cl)ccc13 [AZD5991] + Nc1ccn([C@@H]2O[C@H](CO)[C@@H](O)C2(F)F)c(=O)n1 [Gemcitabine] (first compound max 1 µM, 7x7, partner max 0.3 µM) , state its recorded combination Emax.
Key: 0.929
